Where do the numbers come from? From PubChem BioAssay AID256.

Recorded T/C for the following molecules
Test system: CD2F1 mice, L1210 leukemia ip, survival T/C
Assay: NCI In Vivo Anticancer Drug Screen. Data for tumor model L1210 Leukemia (intraperitoneal) in CD2F1 (CDF1) mice
Conditions: endpoint: mean survival time; dose: 400.0 mg/kg/injection; schedule: Q01DX009 (ip); vehicle: saline with Tween-80; higher = longer survival
Inconclusive results and toxic doses are left out.

molecule | measurement.target | T/C
Cc1cc(=O)[nH][nH]c1=O | CD2F1 mice, L1210 leukemia ip, survival T/C | 101 % of control
COC(=O)CCCCCCCCO | CD2F1 mice, L1210 leukemia ip, survival T/C | 104 % of control
CCOC(=O)C(O)(C(=O)OCC)c1ccc(C)cc1 | CD2F1 mice, L1210 leukemia ip, survival T/C | 97 % of control

Query: T/C; subject: Cc1cc(-n2cccc2)no1
94 % of control

Quick one: T/C of Cc1ccccc1N=Cc1ccc(N(C)C)cc1 ?
90 % of control

Returns the measured T/C for the input molecule. Input: CC1C(=O)C(=O)C(CCc2ccccc2)C1=O (stereo not drawn)
109 % of control

Give the measured T/C of O=S(=O)(O)C1CCC(O)C2[N-]CCCC21.O=S(=O)(O)C1CCC(O)C2[N-]CCCC21.[Zn+2] (stereo not drawn) .
86 % of control

---

# maps each entry to its T/C
System: CD2F1 mice, L1210 leukemia ip, survival T/C
Test: NCI In Vivo Anticancer Drug Screen. Data for tumor model L1210 Leukemia (intraperitoneal) in CD2F1 (CDF1) mice
Settings: endpoint: mean survival time; dose: 100.0 mg/kg/injection; schedule: Q01DX009 (ip); vehicle: water; higher = longer survival
Toxic doses and inconclusive results are not listed.

Example entries begin here.
molecule | T/C
O=C(c1ccc(-c2ccccc2)cc1)C(Br)C(Br)c1ccccc1 (stereo not given) | 90 % of control
CCOC(=O)C(C)Oc1ccc(Cl)cc1 (stereo not given) | 106 % of control
COC1CC(N)C(O)C(C)O1 (stereo not given) | 105 % of control

Name the recorded T/C for ClCC[N+]12CC[N+](CCCl)(CC1)C2 .
111 % of control

Which T/C is reported for this molecule? Nc1nc2c(ncn2C2OC(CO)C(O)C2O)c(=O)[nH]1.Nc1nc2c(ncn2C2OC(CO)C(O)C2O)c(=O)[nH]1.[NH2-].[NH2-].[Pt+2] (stereo not given)
123 % of control

---

System: CD2F1 mice, L1210 leukemia ip, survival T/C
Assay: NCI In Vivo Anticancer Drug Screen. Data for tumor model L1210 Leukemia (intraperitoneal) in CD2F1 (CDF1) mice
Conditions: endpoint: mean survival time; dose: 200.0 mg/kg/injection; schedule: Q01DX009 (ip); vehicle: saline with Tween-80; higher = longer survival
Toxic doses and inconclusive results are not listed. Residues, ends and D or L forms follow the SMILES beside them. *: point of attachment. Cbz = O=C(OCc1ccccc1)*; OBn = c1ccc(CO*)cc1
attribute.measured: T/C

// known answers, use as guide
molecule | result
C=CCCCCCCCCC(=O)NCCCC(OCC)OCC | 100 % of control
c1ccc(P(c2ccccc2)c2ccccc2)cc1 | 98 % of control
CCCCCCCC(=O)Nc1ccc(CC)cc1 | 105 % of control
N#CC(CN1CCOCC1)[N+](=O)[O-] (stereo unspecified) | 100 % of control
Cc1ccc(NC(=O)N2CCCCC2C)cc1[N+](=O)[O-] (stereo unspecified) | 102 % of control
O=C1OC(c2ccccc2)=N/C1=C\c1cccc(O)c1 | 109 % of control
COc1cc(Cl)ccc1NC(=O)Oc1ccc(Cl)cc1Br | 96 % of control
Cc1ccc(Sc2ccc([N+](=O)[O-])cc2)cc1 | 102 % of control

Please give the measured T/C for this molecule: COc1c(C)ccc([N+](=O)[O-])c1OC
98 % of control

Record request: T/C value, item Cc1ccc(NC(=O)N2CCN(C)CC2)cc1[N+](=O)[O-]
94 % of control

// query T/C value for entry S=c1nc[nH]c2c1ncn2CN1CCCCC1
116 % of control

Using the record for ClC(Cl)(Cl)C1OCCO1 , report its T/C.
104 % of control

// query T/C value for entry COc1ccc(CC(O)CO)cc1OCc1ccccc1 (stereo unspecified)
96 % of control

Reported T/C for C(=NCCN=Cc1ccccc1)c1ccccc1 : what is it?
97 % of control

Look at this molecule and give its reported T/C. O=C(CNC(=O)OCc1ccccc1)NCC(=O)OCc1ccccc1 (Cbz-Gly-Gly-OBn)
92 % of control

Entry C/C(=N\Nc1ccc([N+](=O)[O-])cc1[N+](=O)[O-])c1ccc[nH]1 has what T/C?
97 % of control

Item under review: CCCCOC(=O)c1ccc(NC(=O)Nc2ccccc2OC)cc1 . Reported T/C?
91 % of control

Need T/C of CCOC(=O)CCC1(C(=O)OC)C(=O)CCCCCCC1C(=O)OC (stereo unspecified) , thanks.
101 % of control

# get_value(readout='T/C', item= Nc1nc(N)c(N=Nc2ccccc2S(=O)(=O)O)c(N)n1 )
108 % of control

For the molecule shown here, O=C1OC2C3CC4C2OC(=O)C4C13 (stereo unspecified) , give the reported T/C.
98 % of control

Item C=C1C(=O)O[C@H]2C[C@@H](C)[C@@H]3[C@@H](O)C[C@@H](O)[C@@]3(C)C[C@H]12 has what recorded T/C?
94 % of control

Quick check: T/C of S=C(S)Nc1ccc(Cc2ccc(NC(=S)S)cc2)cc1 ?
96 % of control

Data request, read-out T/C, for Oc1ccc(CCCl)cc1
102 % of control

Any idea what its T/C is? The molecule is CCO/N=C(\N)c1ccccc1
100 % of control

T/C lookup needed for Cc1c(C)c(OC(=O)c2ccccc2)c(Br)c(C)c1OC(=O)c1ccccc1 , thanks.
100 % of control

Entry under review: O/N=C(/CN1CCOCC1)c1ccccc1 . Reported T/C?
94 % of control

---

Tested on: CD2F1 mice, L1210 leukemia ip, survival T/C
Experiment: NCI In Vivo Anticancer Drug Screen. Data for tumor model L1210 Leukemia (intraperitoneal) in CD2F1 (CDF1) mice
Settings: endpoint: mean survival time; dose: 100.0 mg/kg/injection; schedule: Q04DX003 (ip); vehicle: saline with Tween-80; higher = longer survival
Toxic doses and inconclusive results are not listed.
attribute.measured: T/C

Would you please look over these solved cases?
compound | T/C
CC12C=C(C(=O)c3ccccc3)C(CC1)C2(C)C (stereo not drawn) | 96 % of control
O=[N+]([O-])/C=C\c1ccc2c(c1)OCO2 | 101 % of control

Query: T/C; subject: O=C(NS(=O)(=O)c1ccc(Cl)cc1)OCCCl
97 % of control

Would you kindly share the measured T/C for Cc1ccccc1C(C)(C#N)Nc1ccccc1 (stereo not drawn) ?
101 % of control

---

Tested on: CD2F1 mice, L1210 leukemia ip, survival T/C
Assay: NCI In Vivo Anticancer Drug Screen. Data for tumor model L1210 Leukemia (intraperitoneal) in CD2F1 (CDF1) mice
Conditions: endpoint: mean survival time; dose: 75.0 mg/kg/injection; schedule: Q04DX003 (ip); vehicle: saline with Tween-80; higher = longer survival
Inconclusive results and toxic doses are left out.
Measured T/C values are reported for all entries that follow.

A selection of reference data follows.
compound | T/C
COC(=O)C1OC(OC(C)=O)C(OC(C)=O)C(OC(C)=O)C1OC(C)=O (centres undefined) | 98 % of control
CCOC(=O)c1ccc(N)cc1 | 93 % of control
CN(C)/C=C(\C#N)C=O | 87 % of control

Fill in the blank: the reported T/C of CCC1CCCC[N-]1.CCC1CCCC[N-]1.[Cl][Pt+2][Cl] (centres undefined) is ____.
91 % of control

---

Measured T/C of individual entries
System: CD2F1 mice, L1210 leukemia ip, survival T/C
Assay: NCI In Vivo Anticancer Drug Screen. Data for tumor model L1210 Leukemia (intraperitoneal) in CD2F1 (CDF1) mice
Details: endpoint: mean survival time; dose: 50.0 mg/kg/injection; schedule: Q01DX001 (ip); vehicle: saline; higher = longer survival
Inconclusive results and toxic doses are left out.

Field: example entries. Status: answers known.
molecule | T/C
CNC(=S)SC | 98 % of control
COC(=O)c1cc(NC(=O)Nc2cc([N+](=O)[O-])ccc2Cl)cc(C(=O)OC)c1 | 92 % of control
CCOC(=O)c1cccc(N(CCOS(C)(=O)=O)CCOS(C)(=O)=O)c1 | 98 % of control
O=C(C[n+]1ccccc1)c1ccccc1 | 106 % of control
O=C(O)C(O)C(O)C1[O][Sb][O]C1CO (configuration not stated) | 97 % of control
O=C(O)c1c(O)cccc1O | 98 % of control

Please look at the following molecule next.
Entry CC1(C[N+](C)(C)C)COC(C)(C)O1 (configuration not stated) has what T/C?
96 % of control
